EXPERIMENTAL_TARGET: Toll-like receptor 1/2 (Homo sapiens, UniProt O60603+Q15399)
Sequence (O60603 whole entry): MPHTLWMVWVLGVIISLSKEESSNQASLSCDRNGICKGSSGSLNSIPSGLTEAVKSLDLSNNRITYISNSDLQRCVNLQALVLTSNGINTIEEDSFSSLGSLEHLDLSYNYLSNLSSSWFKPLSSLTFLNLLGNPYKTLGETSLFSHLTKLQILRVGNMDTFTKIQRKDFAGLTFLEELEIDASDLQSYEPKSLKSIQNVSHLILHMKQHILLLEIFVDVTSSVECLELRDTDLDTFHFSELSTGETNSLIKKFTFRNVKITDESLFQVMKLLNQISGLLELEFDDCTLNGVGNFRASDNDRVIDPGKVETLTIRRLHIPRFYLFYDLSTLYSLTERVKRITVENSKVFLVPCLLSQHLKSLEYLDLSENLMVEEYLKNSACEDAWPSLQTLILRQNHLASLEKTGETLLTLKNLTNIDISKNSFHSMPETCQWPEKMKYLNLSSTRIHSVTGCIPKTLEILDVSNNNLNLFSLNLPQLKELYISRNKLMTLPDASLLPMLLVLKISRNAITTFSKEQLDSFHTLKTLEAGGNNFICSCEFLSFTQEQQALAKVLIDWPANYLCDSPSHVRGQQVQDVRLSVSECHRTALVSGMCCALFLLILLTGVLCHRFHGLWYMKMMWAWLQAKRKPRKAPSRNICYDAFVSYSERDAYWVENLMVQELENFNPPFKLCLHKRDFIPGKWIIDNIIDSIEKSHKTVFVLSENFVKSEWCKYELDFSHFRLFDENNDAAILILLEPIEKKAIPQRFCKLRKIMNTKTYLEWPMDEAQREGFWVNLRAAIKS
Sequence (Q15399 whole entry): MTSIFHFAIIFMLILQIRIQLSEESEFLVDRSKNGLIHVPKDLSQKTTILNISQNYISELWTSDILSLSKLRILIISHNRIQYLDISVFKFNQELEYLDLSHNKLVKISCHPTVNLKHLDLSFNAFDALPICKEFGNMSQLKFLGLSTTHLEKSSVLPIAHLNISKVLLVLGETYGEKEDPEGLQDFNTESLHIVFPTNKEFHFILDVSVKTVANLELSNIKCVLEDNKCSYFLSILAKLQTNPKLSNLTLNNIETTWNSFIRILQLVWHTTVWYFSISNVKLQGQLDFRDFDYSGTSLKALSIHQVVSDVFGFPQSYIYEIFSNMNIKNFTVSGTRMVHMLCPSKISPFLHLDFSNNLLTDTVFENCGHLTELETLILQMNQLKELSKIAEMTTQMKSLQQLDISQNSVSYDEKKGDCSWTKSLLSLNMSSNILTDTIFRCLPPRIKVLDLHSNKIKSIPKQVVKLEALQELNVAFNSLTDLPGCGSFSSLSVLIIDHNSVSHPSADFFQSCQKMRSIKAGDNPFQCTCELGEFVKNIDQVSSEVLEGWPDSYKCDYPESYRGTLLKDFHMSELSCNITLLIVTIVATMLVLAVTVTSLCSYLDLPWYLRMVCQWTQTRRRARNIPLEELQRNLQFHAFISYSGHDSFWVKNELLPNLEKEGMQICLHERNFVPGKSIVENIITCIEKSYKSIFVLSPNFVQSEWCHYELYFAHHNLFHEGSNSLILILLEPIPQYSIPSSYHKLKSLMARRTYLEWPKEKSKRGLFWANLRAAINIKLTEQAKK
EXPERIMENTAL_PROTOCOL: Agonist activity at TLR1/TLR2 in human THP-1 derived macrophages assessed as stimulation of TNF alpha release measured for 4 hrs by ELISA based assay relative to diprovocim-1
Type: cell-based
Set-up: concentration or dose not given beside the values
TEST_PARAMETERS: filed as agonist
READOUT_KIND: Activity (%)

CC(C)(C)OC(=O)NCCOCCOCCOCCOCCC(=O)OCCCCCCCCCCCCNC(=O)[C@@H]1CN(C(=O)c2ccc(C(=O)N3C[C@@H](C(=O)N[C@H]4C[C@@H]4c4ccccc4)[C@H](C(=O)N[C@H]4C[C@@H]4c4ccccc4)C3)cc2)C[C@H]1C(=O)N[C@H]1C[C@@H]1c1ccccc1	90
CC(C)(C)OC(=O)N1CCC[C@H]1C(=O)OCCCCCCCCCCCCNC(=O)[C@@H]1CN(C(=O)c2ccc(C(=O)N3C[C@@H](C(=O)N[C@H]4C[C@@H]4c4ccccc4)[C@H](C(=O)N[C@H]4C[C@@H]4c4ccccc4)C3)cc2)C[C@H]1C(=O)N[C@H]1C[C@@H]1c1ccccc1	90
CC(C)(C)OC(=O)/C=C/C(=O)NCC(=O)OCCCCCCCCCCCCNC(=O)[C@@H]1CN(C(=O)c2ccc(C(=O)N3C[C@@H](C(=O)N[C@H]4C[C@@H]4c4ccccc4)[C@H](C(=O)N[C@H]4C[C@@H]4c4ccccc4)C3)cc2)C[C@H]1C(=O)N[C@H]1C[C@@H]1c1ccccc1	90
O=C(CNC(=O)c1ccc(C(=O)O)cc1)OCCCCCCCCCCCCNC(=O)[C@@H]1CN(C(=O)c2ccc(C(=O)N3C[C@@H](C(=O)N[C@H]4C[C@@H]4c4ccccc4)[C@H](C(=O)N[C@H]4C[C@@H]4c4ccccc4)C3)cc2)C[C@H]1C(=O)N[C@H]1C[C@@H]1c1ccccc1	100

====

EXPERIMENTAL_TARGET: Toll-like receptor 1/2 (Homo sapiens, UniProt O60603+Q15399)
EXPERIMENTAL_PROTOCOL: Agonist activity at TLR1/TLR2 in human THP-1 derived macrophages assessed as stimulation of TNF alpha release measured for 4 hrs by ELISA based assay relative to diprovocim-1
Type: cell-based
Design: concentration or dose not given beside the values
TEST_PARAMETERS: filed as agonist
READOUT_KIND: Activity (%)

CC(C)(C)OCC(=O)OCCCCCCCCCCCCNC(=O)[C@@H]1CN(C(=O)c2ccc(C(=O)N3C[C@@H](C(=O)N[C@H]4C[C@@H]4c4ccccc4)[C@H](C(=O)N[C@H]4C[C@@H]4c4ccccc4)C3)cc2)C[C@H]1C(=O)N[C@H]1C[C@@H]1c1ccccc1	100
[N-]=[N+]=NCC(=O)OCCCCCCCCCCCCNC(=O)[C@@H]1CN(C(=O)c2ccc(C(=O)N3C[C@@H](C(=O)N[C@H]4C[C@@H]4c4ccccc4)[C@H](C(=O)N[C@H]4C[C@@H]4c4ccccc4)C3)cc2)C[C@H]1C(=O)N[C@H]1C[C@@H]1c1ccccc1	100

====

EXPERIMENTAL_TARGET: Toll-like receptor 1/2 (Homo sapiens, UniProt O60603+Q15399)
EXPERIMENTAL_PROTOCOL: Agonist activity at TLR1/TLR2 in human THP-1 derived macrophages assessed as stimulation of TNF alpha release measured for 4 hrs by ELISA based assay
READOUT_KIND: EC50 (nM)

CCCCNC(=O)[C@@H]1CN(C(=O)c2ccc(C(=O)N3C[C@@H](C(=O)N[C@H]4C[C@@H]4c4ccccc4)[C@H](C(=O)N[C@H]4C[C@@H]4c4ccccc4)C3)cc2)C[C@H]1C(=O)N[C@H]1C[C@@H]1c1ccccc1	2
COC(=O)CCCCCCCCCNC(=O)[C@@H]1CN(C(=O)c2ccc(C(=O)N3C[C@@H](C(=O)N[C@H]4C[C@@H]4c4ccccc4)[C@H](C(=O)N[C@H]4C[C@@H]4c4ccccc4)C3)cc2)C[C@H]1C(=O)N[C@H]1C[C@@H]1c1ccccc1	0.37

A. CC(C)(C)OC(=O)NCC(=O)OCCCCCCCCCCCCNC(=O)[C@@H]1CN(C(=O)c2ccc(C(=O)N3C[C@@H](C(=O)N[C@H]4C[C@@H]4c4ccccc4)[C@H](C(=O)N[C@H]4C[C@@H]4c4ccccc4)C3)cc2)C[C@H]1C(=O)N[C@H]1C[C@@H]1c1ccccc1
B. CCNC(=O)[C@@H]1CN(C(=O)c2ccc(C(=O)N3C[C@@H](C(=O)N[C@H]4C[C@@H]4c4ccccc4)[C@H](C(=O)N[C@H]4C[C@@H]4c4ccccc4)C3)cc2)C[C@H]1C(=O)N[C@H]1C[C@@H]1c1ccccc1
Query block: Looking only at measured EC50, which entry is lower, A or B ? Write down the label of the entry you select.
Result block: A
(A: 0.14 nM, B: 17 nM)

I. CCCCCCCCNC(=O)[C@@H]1CN(C(=O)c2ccc(C(=O)N3C[C@@H](C(=O)N[C@H]4C[C@@H]4c4ccccc4)[C@H](C(=O)N[C@H]4C[C@@H]4c4ccccc4)C3)cc2)C[C@H]1C(=O)N[C@H]1C[C@@H]1c1ccccc1
II. CCCCCCCCCCCCCCNC(=O)[C@@H]1CN(C(=O)c2ccc(C(=O)N3C[C@@H](C(=O)N[C@H]4C[C@@H]4c4ccccc4)[C@H](C(=O)N[C@H]4C[C@@H]4c4ccccc4)C3)cc2)C[C@H]1C(=O)N[C@H]1C[C@@H]1c1ccccc1
Query block: Looking only at measured EC50, which entry is lower, I or II ? Write down the label of the entry you select.
Result block: II

a. COC(=O)CCCCCCCNC(=O)[C@@H]1CN(C(=O)c2ccc(C(=O)N3C[C@@H](C(=O)N[C@H]4C[C@@H]4c4ccccc4)[C@H](C(=O)N[C@H]4C[C@@H]4c4ccccc4)C3)cc2)C[C@H]1C(=O)N[C@H]1C[C@@H]1c1ccccc1
b. CCCCCCNC(=O)[C@@H]1CN(C(=O)c2ccc(C(=O)N3C[C@@H](C(=O)N[C@H]4C[C@@H]4c4ccccc4)[C@H](C(=O)N[C@H]4C[C@@H]4c4ccccc4)C3)cc2)C[C@H]1C(=O)N[C@H]1C[C@@H]1c1ccccc1
c. O=C(O)[C@@H]1CN(C(=O)c2ccc(C(=O)N3C[C@@H](C(=O)N[C@H]4C[C@@H]4c4ccccc4)[C@H](C(=O)N[C@H]4C[C@@H]4c4ccccc4)C3)cc2)C[C@H]1C(=O)N[C@H]1C[C@@H]1c1ccccc1
Query block: Falling order of EC50, please. Lab note: record answer as labels in requested order.
Result block: c, a, b

Recorded values, source ChEMBL document CHEMBL5143728.
